- Target Or Test System: T1, human GPC3 (human, UniProt P51654 25-563)
- T1 construct: range 25-563; soluble analyte; also called soluble human GPC3; glypican 3
- T1 sequence (P51654 25-563 limits assumed): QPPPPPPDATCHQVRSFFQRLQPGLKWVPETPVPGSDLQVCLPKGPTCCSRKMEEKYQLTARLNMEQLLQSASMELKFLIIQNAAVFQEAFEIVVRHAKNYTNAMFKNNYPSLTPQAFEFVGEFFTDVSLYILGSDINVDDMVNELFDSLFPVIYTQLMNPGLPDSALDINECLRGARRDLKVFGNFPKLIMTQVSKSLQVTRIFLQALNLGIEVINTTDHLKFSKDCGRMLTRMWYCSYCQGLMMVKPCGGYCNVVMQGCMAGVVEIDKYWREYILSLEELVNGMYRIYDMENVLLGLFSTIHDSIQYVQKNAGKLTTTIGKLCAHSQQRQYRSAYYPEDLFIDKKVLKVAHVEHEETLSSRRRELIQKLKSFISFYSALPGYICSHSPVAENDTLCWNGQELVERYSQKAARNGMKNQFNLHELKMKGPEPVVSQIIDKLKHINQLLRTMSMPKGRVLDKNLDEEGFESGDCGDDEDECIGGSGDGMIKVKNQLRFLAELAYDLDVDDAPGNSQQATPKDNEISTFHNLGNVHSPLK
- Experiment Summary: SPR
Quick reference: Kd of the listed items.
Readout: Kd (nM)

INSERT INTO assay_data (binder, readout, scale_unit, value) VALUES
  ('GCH003-G1dh/none-Hi-Kn010G3/L0000-k0 (antibody, V domains shown, one-arm) VH: QVQLVQSGAEVKKPGASVKVSCKASGYTFTDYEMHWIRQPPGQGLEWIGAIDGDTPDTAYSQKFKGRVTLTADKSTSTAYMELSSLTSEDTAVYYCTRFYSYTYWGQGTLVTVSS VL: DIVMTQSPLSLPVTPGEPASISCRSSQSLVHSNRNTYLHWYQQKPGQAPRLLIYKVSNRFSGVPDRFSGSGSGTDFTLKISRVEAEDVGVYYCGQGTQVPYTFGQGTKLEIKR', 'Kd', 'nM', 5.2),
  ('GCH026-G1dh/none-Hi-Kn010G3/L0000-k0 (antibody, V domains shown, one-arm) VH: QVQLVQSGAEVKKPGASVKVSCKASGYTFTDYEMHWIRQPPGQGLEWIGAIDGETPDTAYSESFKGRVTLTADKSTSTAYMELSSLTSEDTAVYYCTRFYSYTYWGQGTLVTVSS VL: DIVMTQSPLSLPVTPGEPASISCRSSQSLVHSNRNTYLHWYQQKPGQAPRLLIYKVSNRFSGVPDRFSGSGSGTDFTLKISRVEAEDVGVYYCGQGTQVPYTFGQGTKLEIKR', 'Kd', 'nM', 5.17),
  ('H0610-G1dh/none-Hi-Kn010G3/L0205-k0 (antibody, V domains shown, one-arm) VH: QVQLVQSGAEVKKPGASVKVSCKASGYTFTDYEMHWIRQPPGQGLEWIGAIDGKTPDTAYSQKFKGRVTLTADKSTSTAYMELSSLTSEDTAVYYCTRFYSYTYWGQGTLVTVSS VL: DIVMTQSPLSLPVTPGEPASISCRSSQSPVHSNRNTYLHWYQQKPGQAPRLLIYKVSNRFWGVPDRFSGSGSGTDFTLKISRVEAEDVGVYYCGQGTQVPYTFGQGTKLEIK', 'Kd', 'nM', 1.01),
  ('GCH054-G1dh/none-Hi-Kn010G3/L0201-k0 (antibody, V domains shown, one-arm) VH: QVQLVQSGAEVKKPGASVTVSCKASGYTFTDYEMHWIRQPPGEGLEWIGAIDGETPDTAYSEKFKGRVTLTADKSTSTAYMELSSLTSEDTAVYYCTRFYSYTYWGQGTLVTVSS VL: DIVMTQSPLSLPVTPGEPASISCRSSQPPVHSNRNTYLHWYQQKPGQAPRLLIYKVSNRFSGVPDRFSGSGSGTDFTLKISRVEAEDVGVYYCGQGTQVPYTFGQGTKLEIKR', 'Kd', 'nM', 1.08),
  ('H0610-G1dh/none-Hi-Kn010G3/L0007-k0 (antibody, V domains shown, one-arm) VH: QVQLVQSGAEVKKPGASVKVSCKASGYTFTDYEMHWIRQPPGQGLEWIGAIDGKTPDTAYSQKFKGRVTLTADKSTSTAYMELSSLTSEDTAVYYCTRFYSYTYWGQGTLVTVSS VL: DIVMTQSPLSLPVTPGEPASISCRTSQSLVHSNRNTYLHWYQQKPGQAPRLLIYKVSNRFSGVPDRFSGSGSGTDFTLKISRVEAEDVGVYYCGQGTQVPYTFGQGTKLEIK', 'Kd', 'nM', 4.39),
  ('GCH100-G1dh/none-Hi-Kn010G3/L0201-k0 (antibody, V domains shown, one-arm) VH: QVQLVQSGAEVKKPGASVTVSCKASGYTFTDYEMHWVRQAPGEGLEWMGAIDGYTPDTAYSEKFKGRVTLTADKSTSTAYMELSSLTSEDTAVYYCTRFYSYTYWGQGTLVTVSS VL: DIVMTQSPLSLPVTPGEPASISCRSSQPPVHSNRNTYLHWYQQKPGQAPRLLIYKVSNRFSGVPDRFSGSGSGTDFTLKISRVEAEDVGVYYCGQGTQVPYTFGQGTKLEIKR', 'Kd', 'nM', 1.37),
  ('H0610-G1dh/none-Hi-Kn010G3/L0044-k0 (antibody, V domains shown, one-arm) VH: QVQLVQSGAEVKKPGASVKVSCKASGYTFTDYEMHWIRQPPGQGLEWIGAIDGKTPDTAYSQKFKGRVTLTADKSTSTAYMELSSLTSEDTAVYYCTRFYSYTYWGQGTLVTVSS VL: DIVMTQSPLSLPVTPGEPASISCRSSQSLVHPNRNTYLHWYQQKPGQAPRLLIYKVSNRFSGVPDRFSGSGSGTDFTLKISRVEAEDVGVYYCGQGTQVPYTFGQGTKLEIK', 'Kd', 'nM', 4.57),
  ('H0610-G1dh/none-Hi-Kn010G3/L0224-k0 (antibody, V domains shown, one-arm) VH: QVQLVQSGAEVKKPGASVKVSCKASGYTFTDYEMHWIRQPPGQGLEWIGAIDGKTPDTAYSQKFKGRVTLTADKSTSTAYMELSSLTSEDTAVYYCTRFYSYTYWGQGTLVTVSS VL: DIVMTQSPLSLPVTPGEPASISCRSSQSPVHSNRNTYIHWYQQKPGQAPRLLIYKVSNRFPGVPDRFSGSGSGTDFTLKISRVEAEDVGVYYCYQGTQVPYTFGQGTKLEIK', 'Kd', 'nM', 0.243),
  ('GCH055-G1dh/none-Hi-Kn010G3/L0222-k0 (antibody, V domains shown, one-arm) VH: QVQLVQSGAEVKKPGASVTVSCKASGYTFTDYEMHWIRQPPGEGLEWIGAIDGETPDTAYSDKFKGRVTLTADKSTSTAYMELSSLTSEDTAVYYCTRFYSYTYWGQGTLVTVSS VL: DIVMTQSPLSLPVTPGEPASISCRSSQSPVHSNRNTYIQWYQQKPGQAPRLLIYKVSNRFSGVPDRFSGSGSGTDFTLKISRVEAEDVGVYYCYQGTQVPYTFGQGTKLEIKR', 'Kd', 'nM', 0.0039),
  ('H0610-G1dh/none-Hi-Kn010G3/L0038-k0 (antibody, V domains shown, one-arm) VH: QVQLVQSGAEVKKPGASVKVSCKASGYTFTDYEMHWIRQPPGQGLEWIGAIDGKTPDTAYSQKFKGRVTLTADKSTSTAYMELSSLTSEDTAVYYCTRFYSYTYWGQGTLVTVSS VL: DIVMTQSPLSLPVTPGEPASISCRSSQSLVHFNRNTYLHWYQQKPGQAPRLLIYKVSNRFSGVPDRFSGSGSGTDFTLKISRVEAEDVGVYYCGQGTQVPYTFGQGTKLEIK', 'Kd', 'nM', 2.75);
